- Tested on: A498 renal
- assayName: NCI-60 one-dose screen, 48 h
- assayContext: 10 µM unless noted
This is part of a sample that, as a whole, favours compounds with a hit. Of some 83,000 tested, about 20% had one in any assay. Activity calls are given as the source filed them. Rule for the calls: active = growth percent below 10; inactive = the rest.
# output must be one of active, inactive

COc1ccc(-c2c(-c3ccc(OC)c(O)c3)cnc3ncnn23)cc1 : inactive
COc1cc(-c2c3c(c(Br)n2Cc2ccccc2)-c2nc(N)sc2CC3)cc(OC)c1OC : inactive
CN=c1ccc2nc3ccc(N)cc3sc-2c1 : inactive
O=Cc1cc2ccccc2nc1Nc1nccs1 : inactive
CC1=C(CC(=O)c2cccc([N+](=O)[O-])c2)C(=O)c2ccccc2C1=O : inactive
CCN1C(=O)N(CC)C2C1NN=c1s/c(=C3\C(=O)N(C(C)C)c4ccccc43)c(=O)n12 (stereo not drawn) : active
CC[C@@H](C)[C@H](NC(=O)Cn1cc(CNC(=O)[C@@H](NC(=O)OCc2ccccc2)C(C)C)nn1)C(=O)O : inactive
COc1cc(C(=O)NN=C2c3ccccc3-c3ccccc32)cc(OC)c1OC : active

Challenge: Given Clc1ncccc1Nc1ccc2nnc(-c3ccncc3)n2n1 , state the outcome it received in this test.
Response given: inactive

Challenge: Given CCOc1ccc(Nc2ccnc3cc(Cl)ccc23)cc1 , state the outcome it received in this test.
Response given: active

Challenge: Given COc1cc(/C=C2\CN(C)C/C(=C\c3cc(CN4CCOCC4)c(O)c(OC)c3)C2=O)cc(CN2CCOCC2)c1O , state the outcome it received in this test.
Response given: inactive

Challenge: Given COc1cc(C#N)cc2[nH]c(=O)oc12 , state the outcome it received in this test.
Response given: inactive

Challenge: Given N#C/C(=C\c1c(-c2ccccc2)[nH]c2ccccc12)C(=O)c1ccccc1 , state the outcome it received in this test.
Response given: inactive

###

- System: HT29 colon
- assayName: NCI-60 one-dose screen, 48 h (100 = growth as untreated, 0 = no growth, -100 = all killed)
- assayContext: 10 µM unless noted
The panel holds about 83,000 compounds, 20% with a hit somewhere; the sample as a whole holds those more often.
measuredQuantity: growth (%)
Write it as a number; the unit % goes unstated.

# annotated cases, reported growth shown
COc1cc(C(=O)NN=C2c3ccccc3-c3ccccc32)cc(OC)c1OC : 5.22
O=c1oc2ccc(Br)cc2c(=O)n1-c1ccc(I)cc1F : 40.1

With those in mind, consider the next molecule.
Challenge: Write down growth measured for item COc1cc(/C(C#N)=C/c2nc3c(N4CCOCC4)nc(Cl)nc3n2C)cc(OC)c1OC
Response given: 9.95

###

- Tested on: UO-31 renal
- assayName: NCI-60 one-dose screen, 48 h (100 = growth as untreated, 0 = no growth, -100 = all killed)
- assayContext: 10 µM unless noted
This is part of a sample that, as a whole, favours compounds with a hit. Of some 83,000 tested, about 20% had one in any assay.
// growth lookup, one value per entry
Write it as a number; the unit % goes unstated.

# annotated cases, reported growth shown
NCCOc1ccccc1/C=C1\c2ccccc2-c2ccc([N+](=O)[O-])cc21 : -7
COc1ccc(OC)c(/C=C/C(=O)c2c(C)nc3ccccc3c2/C=C/c2ccccc2)c1 : 60.3
O=C1CCC(N2C(=O)c3cccc(NCCCCCCOc4ccc(Nc5nccc(Nc6ccccc6)n5)cc4)c3C2=O)C(=O)N1 (centres undefined) : 77.8
CCOC(=O)c1cnc2c(C)cccc2c1Nc1ccc(C(C)=O)cc1 : 13.3
CCOc1c(Br)cc(C2C(C(=O)OC)=CN(C)C=C2C(=O)OC)cc1OC : 38.2

With those in mind, consider the next compound.
Challenge: Write down growth measured for item COc1cc(CNC(=O)c2ccsc2Nc2ccnc(C(F)(F)F)c2)ccc1O
Response given: 82.7

###

- Tested on: RPMI-8226 leukemia
- assayName: NCI-60 one-dose screen, 48 h (100 = growth as untreated, 0 = no growth, -100 = all killed)
- assayContext: 10 µM unless noted
This is part of a sample that, as a whole, favours compounds with a hit. Of some 83,000 tested, about 20% had one in any assay. Activity calls are given as the source filed them. How the source made its calls: active means growth percent below 10; inactive means the rest.
// growth lookup, one value per entry

# annotated cases, reported growth shown
CCCCN1CCN(c2ccc3nc(-c4ccc5nc(-c6ccc(OC)c(OC)c6)[nH]c5c4)[nH]c3c2)CC1 : -19% (active)
C1CCN(c2nc(N3CCCCC3)nc(N3CCOCC3)n2)CC1 : 100% (inactive)
O=c1oc2ccc(Br)cc2c(=O)n1-c1ccc(I)cc1F : -28.3% (active)
CN(CCc1ccccc1)C(=S)N(C(=O)c1ccc([N+](=O)[O-])cc1)c1ccc(Cl)cc1 : -15.8% (active)

Challenge: Write down growth measured for item O=Cc1c(OCc2cnnn2CC(=O)Nc2ccc(Cl)cc2)ccc2ccccc12
Response given: 105% (inactive)

Challenge: Write down growth measured for item O=C(Nc1ccc(Cl)cc1)N1CCN(c2ccc3nncn3n2)CC1
Response given: -20.9% (active)

Challenge: Write down growth measured for item Nc1nc(-c2cnccn2)nn1-c1nc2ccccc2s1
Response given: 82% (inactive)

###

- Test system: SF-539 CNS
- assayName: NCI-60 one-dose screen, 48 h (100 = growth as untreated, 0 = no growth, -100 = all killed)
- assayContext: 10 µM unless noted
This is part of a sample that, as a whole, favours compounds with a hit. Of some 83,000 tested, about 20% had one in any assay.
measuredQuantity: growth (%)
Write it as a number; the unit % goes unstated.

COc1ccc(C2Nc3nc(OC)n(C)c(=O)c3N=C3c4ccccc4C(=O)C32)cc1 (centres undefined) : 89.8
O=C1CCC(N2C(=O)c3cccc(NCCCCCCOc4ccc(Nc5nccc(Nc6ccccc6)n5)cc4)c3C2=O)C(=O)N1 (centres undefined) : 89.1
O=C(NC1CCCCC1)C(c1cccs1)N(CCc1ccccc1)C(=O)c1ccco1 (centres undefined) : 90.9

Challenge: Report growth from SF-539 CNS testing of O=C(Cn1cc(COc2ncnc3c2cnn3-c2ccccc2)nn1)Nc1cccc2ccccc12
Response given: 90

###

// growth lookup, one value per entry
- Tested on: OVCAR-5 ovarian
- assayName: NCI-60 one-dose screen, 48 h (100 = growth as untreated, 0 = no growth, -100 = all killed)
- assayContext: 10 µM unless noted
Compounds without any hit were thinned out: in the full panel of roughly 83,000, 20% have a hit. Calls of active or inactive are those of the source. Rule for the calls: active = growth percent below 10; inactive = the rest.

# annotated cases, reported growth shown
NC1(N2SC(S)=C3CCCC=C32)CCCCC1 : 104% (inactive)
O=C(/C=C/c1ccccn1)c1ccc(OCc2nnc(-c3ccc(Cl)cc3)o2)cc1 : 89.6% (inactive)
CCN(CCO)CCNc1ccc(C)c2sc3cc(Cl)ccc3c(=O)c12 : 64.4% (inactive)

Challenge: Write down growth measured for item O=C1OC(c2ccccc2)(c2ccccc2)c2ccsc21
Response given: 95.7% (inactive)

Challenge: Write down growth measured for item O=c1c2cc(F)cc(Cl)c2sc2c(Cl)nc3ccccc3c12
Response given: 95.5% (inactive)

Challenge: Write down growth measured for item CC(=O)SC1CC(=O)C=C2CCC3C4CCC(=O)OC4(C)CCC3C21C (stereo unspecified)
Response given: 99.7% (inactive)

Challenge: Write down growth measured for item Cc1ccc(C(=O)c2oc3ccc4c(C)cc(=O)oc4c3c2C)cc1
Response given: 66% (inactive)

Challenge: Write down growth measured for item O=C(CSc1ncccc1C(=O)O)Nc1ccc(Oc2ccccc2)cc1
Response given: 108% (inactive)

Challenge: Write down growth measured for item CC(=O)Nc1nc2c(s1)CCc1c-2cn(S(=O)(=O)c2ccccc2)c1-c1ccccc1
Response given: 97.4% (inactive)

Challenge: Write down growth measured for item COC(=O)C1(C)CCC[C@]2(C)[C@H]3C[C@H]4C(C(C)C)=C[C@]3(CC[C@@H]12)[C@H]1[C@@H]4[C@@H](OCC#CCN2CCOCC2)CC[C@@H]1OCC#CCN1CCOCC1 (stereo partly specified)
Response given: 106% (inactive)

Challenge: Write down growth measured for item Cc1ccc(F)cc1NC(=O)c1cc(Cl)ccc1Nc1ccccc1
Response given: 70.2% (inactive)

Challenge: Write down growth measured for item CCC1=C[C@]2(C3CC(=O)N(c4ccccc4)C3=O)CC(C(C)(C)C)C[C@@H]2[C@@H]2C(=O)N(c3ccccc3)C(=O)[C@H]12 (stereo partly specified)
Response given: 88.7% (inactive)

Challenge: Write down growth measured for item COC(=O)C1(C)COP(=O)(Nc2ccc(OC)cc2)OC1 (stereo unspecified)
Response given: 108% (inactive)

Challenge: Write down growth measured for item O=c1cc(-c2ccccc2)oc2cc(OCc3cn(Cc4ccc(F)cc4)nn3)cc(OCc3cn(Cc4ccc(F)cc4)nn3)c12
Response given: 55.1% (inactive)

Challenge: Write down growth measured for item O=C(NC1CCN(Cc2ccccc2)CC1)c1cc(C(=O)NC2CCN(Cc3ccccc3)CC2)cc(C(=O)NC2CCN(Cc3ccccc3)CC2)c1
Response given: 112% (inactive)

Challenge: Write down growth measured for item COc1cc2nc(NC3CCCC3)nc(NC3CCN(C(C)C)CC3)c2cc1OC
Response given: 107% (inactive)
